Parameter growth inhibition: see the listing below.
experiment: NCI Yeast Anticancer Drug Screen. Data for the mlh1 rad18 strain (AID 175); settings: S. cerevisiae mlh1 rad18 strain growth inhibition; at 50.0 µM (retest, dose inferred, filed as 5.0); active compounds read high
This is part of a sample that, as a whole, favours compounds with a hit. Of some 79,000 tested, about 15% had one in any assay.
Expressed in %, but write only the number.

Field: example entries. Status: answers known.
Brc1ccc(N2COc3ccc4ccccc4c3C2)cc1 | 2
c1cc2c(c3c1CN(C1CCCCC1)CO3)OCN(C1CCCCC1)C2 | 10
CC(C)CCOC(=O)c1ccc(O)cc1.[Zn+2] | 35
Oc1cccc2ccncc12 | 43

Prompt: Requested read-out: growth inhibition. Entry: CCOC(=O)C1SC(=Nc2cccc(Cl)c2C)N=C1C (stereo not drawn)
Response: 91
